biological target: human activated kallikrein enzyme (plasma kallikrein) (Homo sapiens (Human)); assay: Inhibition of human activated plasma kallikrein, fluorogenic peptide substrate assay, 500 pM enzyme format; format: biochemical; settings: 500 pM activated kallikrein enzyme, 300 uM Pro-Phe-Arg-7-amido-4-methylcoumarin substrate, 30 min preincubation, 10 min at RT; read-out: Primary Dose Response Assay: Average EC50
Reported EC50 is given for each of the following molecules.

Use the examples below as a reference point.
Molecule | Result
COCc1c(C(=O)NCc2ncn3ccc(Cl)cc23)cnn1Cc1cn2cc(C3CC3)ccc2n1 | 10 to 100 nM
O=C(NCc1ncn2ccc(Cl)c(F)c12)c1cn(Cc2cn3cc(C4CC4)cc(N4CCOC(C(=O)O)C4)c3n2)nn1 (stereo not drawn) | < 1 nM
Cc1ccc2nc(Cn3cc(C(=O)NCc4ncn5c(N)cc(Cl)cc45)cn3)cn2c1 | 1 to 10 nM
O=C(NCc1ncn2ccc(Cl)c(F)c12)c1nnn(Cc2cn3nc(C4CC4)ccc3n2)n1 | < 1 nM

## Input Please report EC50 for the following molecule: "Nc1ccc2c(CNC(=O)c3cnn(Cc4cn5cc(C6CC6)ccc5n4)c3)ncn2c1"
## Output 100 to 2000 nM

## Input Please report EC50 for the following molecule: "O=C(NCc1ncn2ccc(Cl)cc12)c1nc(Cc2cn3cc(C4CC4)ccc3n2)no1"
## Output < 1 nM

###

target: human activated kallikrein enzyme (plasma kallikrein) (Homo sapiens (Human)); test: Inhibition of human activated plasma kallikrein, fluorogenic peptide substrate assay, 500 pM enzyme format; type: biochemical; settings: 500 pM activated kallikrein enzyme, 300 uM Pro-Phe-Arg-7-amido-4-methylcoumarin substrate, 30 min preincubation, 10 min at RT; read-out: Primary Dose Response Assay: Average EC50
Quantity Measured: EC50

Use the examples below as a reference point.
Molecule | Result
O=C(NCc1ncn2ccc(Cl)c(F)c12)c1cn(Cc2cc3ccc(Cl)cc3[nH]2)nn1 | 100 to 2000 nM
O=C(NCc1ncn2ccc(Cl)c(F)c12)c1cn(Cc2cn3cc(C4CC4)cc(CN4CCCC4)c3n2)nn1 | < 1 nM
C#Cc1ccn2cnc(CNC(=O)c3cnn(Cc4cn5nc(C6CC6)ccc5n4)c3)c2c1 | < 1 nM

## Input Please report EC50 for the following molecule: "CC(C)=Cc1ccn2cc(Cn3cc(C(=O)NCc4ncn5ccc(Cl)cc45)cn3)nc2c1"
## Output 10 to 100 nM

## Input Please report EC50 for the following molecule: "CC(C)(Cc1cc(C2CC2)cn2cc(Cn3cc(C(=O)NCc4ncn5ccc(Cl)c(F)c45)nn3)nc12)C(=O)O"
## Output < 1 nM

## Input Please report EC50 for the following molecule: CCOC(=O)C1CC1c1cc(C2CC2)cn2cc(Cn3cc(C(=O)NCc4ncn5ccc(Cl)cc45)cn3)nc12 (stereo not drawn)
## Output < 1 nM

## Input Please report EC50 for the following molecule: "CCOC(=O)C1(c2cccn3cc(Cn4cc(C(=O)NCc5ncn6ccc(Cl)cc56)cn4)nc23)CC1"
## Output < 1 nM

## Input Please report EC50 for the following molecule: "NC(=O)CCc1cc(C2CC2)cn2cc(Cn3cc(C(=O)NCc4ncn5ccc(Cl)cc45)nn3)nc12"
## Output < 1 nM

## Input Please report EC50 for the following molecule: O=C(NCc1ncn2ccc(Cl)cc12)c1cn(Cc2cn3cc(C4CC4)ccc3n2)nc1C1CC1C(=O)O (stereo not drawn)
## Output < 1 nM

## Input Please report EC50 for the following molecule: "O=C(NCc1ncn2ccc(Cl)c(F)c12)c1cn(Cc2cn3cc(C4CC4)c(F)cc3n2)nn1"
## Output 1 to 10 nM

## Input Please report EC50 for the following molecule: "O=C(NCc1ncn2ccc(Br)cc12)c1cnn(Cc2cn3cc(C4CC4)c(F)cc3n2)c1"
## Output 1 to 10 nM

## Input Please report EC50 for the following molecule: O=C(NCc1ncn2ccc(Cl)c(F)c12)c1cn(Cc2cn3cc(C4CC4)cc(C(O)C4COC4)c3n2)nn1 (stereo not drawn)
## Output < 1 nM

## Input Please report EC50 for the following molecule: "O=C(NCc1ncn2ccc(Cl)c(F)c12)c1cn(Cc2cc3ccc(Cl)cc3s2)nn1"
## Output 10 to 100 nM

## Input Please report EC50 for the following molecule: "O=C(O)COc1cc(C2CC2)cn2cc(Cn3cc(C(=O)NCc4ncn5ccc(Cl)c(F)c45)nn3)nc12"
## Output < 1 nM

## Input Please report EC50 for the following molecule: "O=C(NCc1ncn2ccc(Cl)cc12)c1cn(Cc2cn3nc(C4CC4)ccc3n2)nn1"
## Output < 1 nM

###

molecular target: human activated kallikrein enzyme (plasma kallikrein) (Homo sapiens (Human), UniProt P03952); experiment: Inhibition of human activated plasma kallikrein, fluorogenic peptide substrate assay, 500 pM enzyme format; format: biochemical; details: 500 pM activated kallikrein enzyme, 300 uM Pro-Phe-Arg-7-amido-4-methylcoumarin substrate, 30 min preincubation, 10 min at RT; read-out: Primary Dose Response Assay: Average EC50
Sequence (P03952 391-638): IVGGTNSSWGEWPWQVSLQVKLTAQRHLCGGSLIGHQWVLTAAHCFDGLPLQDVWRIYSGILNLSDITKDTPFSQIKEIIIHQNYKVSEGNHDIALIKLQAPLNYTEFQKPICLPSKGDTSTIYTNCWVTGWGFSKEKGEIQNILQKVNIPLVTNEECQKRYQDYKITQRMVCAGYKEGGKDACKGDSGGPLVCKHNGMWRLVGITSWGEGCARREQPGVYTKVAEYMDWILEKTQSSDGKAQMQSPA
Sequence (P03952 20-390 partner): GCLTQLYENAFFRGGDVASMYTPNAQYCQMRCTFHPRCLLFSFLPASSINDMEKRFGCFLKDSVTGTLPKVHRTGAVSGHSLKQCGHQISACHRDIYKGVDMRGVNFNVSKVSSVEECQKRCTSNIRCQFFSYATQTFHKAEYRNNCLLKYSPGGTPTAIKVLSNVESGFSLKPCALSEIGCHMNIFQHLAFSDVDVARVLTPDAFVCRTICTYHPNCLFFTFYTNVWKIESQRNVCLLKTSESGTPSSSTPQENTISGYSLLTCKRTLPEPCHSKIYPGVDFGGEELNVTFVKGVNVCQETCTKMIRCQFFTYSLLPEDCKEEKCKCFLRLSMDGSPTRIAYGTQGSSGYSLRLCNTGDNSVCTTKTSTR
Reported EC50 is given for each of the following compounds.

Use the examples below as a reference point.
Compound | EC50
O=C(NCc1ncn2ccc(Cl)c(F)c12)c1cn(Cc2cc3ccc(C4CC4)cc3[nH]2)nn1 | 100 to 2000 nM
O=C(NCc1ncn2ccc(Cl)c(F)c12)c1ccn(Cc2cn3cc(C4CC4)ccc3n2)c1 | < 1 nM
O=C(NCc1ncn2ccc(Br)c(F)c12)c1cn(Cc2cn3cc(C4CC4)ccc3n2)nn1 | < 1 nM
O=C(NCc1ncn2ccc(Br)cc12)c1cn(Cc2cn3cc(C4CC4)ccc3n2)nc1C(F)F | 1 to 10 nM
O=C(NCc1nc(C(F)F)n2ccc(Br)cc12)c1cnn(Cc2cn3cc(C4CC4)ccc3n2)c1 | 10 to 100 nM
CCOC(=O)CCc1nn(Cc2cn3cc(C4CC4)ccc3n2)cc1C(=O)NCc1ncn2ccc(Cl)cc12 | < 1 nM

## Input Please report EC50 for the following compound: O=C(NCc1ncn2ccc(Cl)c(F)c12)c1cn(Cc2cn3nc(C4CC4)cc(N4CCC(C(=O)O)C4)c3n2)nn1 (stereo not shown)
## Output < 1 nM

###

molecular target: human activated kallikrein enzyme (plasma kallikrein) (Homo sapiens (Human), UniProt P03952); test: Inhibition of human activated plasma kallikrein, fluorogenic peptide substrate assay, 500 pM enzyme format; format: biochemical; conditions: 500 pM activated kallikrein enzyme, 300 uM Pro-Phe-Arg-7-amido-4-methylcoumarin substrate, 30 min preincubation, 10 min at RT; read-out: Primary Dose Response Assay: Average EC50
Quantity Measured: EC50

Use the examples below as a reference point.
Compound | EC50
O=C(NCc1ncn2cc(F)c(Br)cc12)c1cnn(Cc2cn3cc(C4CC4)ccc3n2)c1 [Example I-151] | 10 to 100 nM
O=C(NCc1ncn2ccc(Cl)c(F)c12)c1cnn(Cc2nc3ccccn3n2)c1 [Example I-282] | 100 to 2000 nM
O=C(NCc1ncn2ccc(Br)c(F)c12)c1cn(Cc2cn3nc(C4CC4)ccc3n2)nn1 [Example I-139] | < 1 nM
O=C(NCc1ncn2ccc(Cl)cc12)c1nnn(Cc2cn3cc(C4CC4)ccc3n2)n1 [Example I-110] | < 1 nM
O=C(NCc1ncn2ccc(Cl)cc12)c1cn(Cc2cn3cc(C4CC4)cc(CCc4nnn[nH]4)c3n2)nn1 [Example I-194] | < 1 nM
O=C(O)c1ccc2nc(Cn3cc(C(=O)NCc4ncn5ccc(Cl)cc45)cn3)cn2c1 [Example I-96] | > 2000 nM
O=C(NCc1ncn2ccc(Cl)c(F)c12)c1cnn(Cc2cn3nc(C4CC4)ccc3n2)c1 [Example I-146] | < 1 nM
O=C(NCc1ncn2ccc(Br)cc12)c1cnn(Cc2cc3cc(C4CC4)ccn3n2)c1 [Example I-56] | 1 to 10 nM

## Input Please report EC50 for the following compound: COC(=O)C(F)Cc1cc(C2CC2)cn2cc(Cn3cc(C(=O)NCc4ncn5ccc(Cl)c(F)c45)nn3)nc12 (stereo not shown) [Example I-224a]
## Output < 1 nM

## Input Please report EC50 for the following compound: O=C(O)CCc1cc(C2CC2)cn2cc(Cn3cc(C(=O)NCc4ncn5ccc(Cl)c(F)c45)nn3)nc12 [Example I-163b]
## Output < 1 nM

## Input Please report EC50 for the following compound: O=C(NCc1ncn2ccc(Cl)c(F)c12)c1cn(Cc2cn3ncccc3n2)nn1 [Example I-290]
## Output 10 to 100 nM

###

target: human activated kallikrein enzyme (plasma kallikrein) (Homo sapiens (Human), UniProt P03952); test: Inhibition of human activated plasma kallikrein, fluorogenic peptide substrate assay, 500 pM enzyme format; format: biochemical; conditions: 500 pM activated kallikrein enzyme, 300 uM Pro-Phe-Arg-7-amido-4-methylcoumarin substrate, 30 min preincubation, 10 min at RT; read-out: Primary Dose Response Assay: Average EC50
Quantity Measured: EC50

Use the examples below as a reference point.
Molecule | Quantity Measured | Result
CCOC(=O)CCc1cc(C2CC2)cn2cc(Cn3cc(C(=O)NCc4ncn5ccc(Cl)cc45)cn3)nc12 [Example I-100b] | EC50 | < 1 nM
COc1c(C2CC2)ccc2nc(Cn3cc(C(=O)NCc4ncn5ccc(Cl)cc45)cn3)cn12 [Example I-142] | EC50 | 1 to 10 nM
COC(=O)Cn1c(Cn2cc(C(=O)NCc3ncn4ccc(Cl)c(F)c34)nn2)cc2cc(C3CC3)ccc21 [Example I-246] | EC50 | < 1 nM
O=C(NCc1ncn2ccc(Cl)c(F)c12)c1cn(Cc2cn3cc(C4CC4)cc(Br)c3n2)nn1 [Example I-204] | EC50 | < 1 nM
O=C(O)c1cnn(Cc2cc(C3CC3)cn3cc(Cn4cc(C(=O)NCc5ncn6ccc(Cl)c(F)c56)nn4)nc23)c1 [Example I-193] | EC50 | < 1 nM
COC(=O)C1CCN(c2cc(C3CC3)nn3cc(Cn4cc(C(=O)NCc5ncn6ccc(Cl)c(F)c56)nn4)nc23)C1 (stereo not drawn) [Example I-266] | EC50 | < 1 nM
O=C(NCc1ncn2ccc(Cl)c(F)c12)c1cn(Cc2cn3cc(C4CC4)cc(N4CCOCC4)c3n2)nn1 [Example I-173] | EC50 | < 1 nM
NC(=O)c1cc(Cn2cc(C(=O)NCc3ncn4ccc(Cl)c(F)c34)nn2)cc2cc(C3CC3)cnc12 [Example I-275] | EC50 | 10 to 100 nM

## Input Please report EC50 for the following molecule: O=C(NCc1ncn2ccc(Cl)cc12)c1ccnc(Cc2ccc3ncc(Cl)cc3c2)c1 [Example I-3]
## Output 10 to 100 nM

## Input Please report EC50 for the following molecule: Cc1nncn1-c1cc(C2CC2)cn2cc(Cn3cc(C(=O)NCc4ncn5ccc(Cl)c(F)c45)nn3)nc12 [Example I-249]
## Output < 1 nM

## Input Please report EC50 for the following molecule: O=C(NCc1ncn2ccc(Cl)c(F)c12)c1cn(Cc2nc3ccccn3n2)nn1 [Example I-287]
## Output 100 to 2000 nM

## Input Please report EC50 for the following molecule: O=C(NCc1ncn2ccc(Cl)cc12)c1nnc(Cc2cn3cc(C4CC4)ccc3n2)o1 [Example I-51]
## Output < 1 nM

## Input Please report EC50 for the following molecule: O=C(NCc1ncn2ccc(Cl)cc12)c1cnn(Cc2cn3cc(C4CC4)cc(N4CCCC4=O)c3n2)c1 [Example I-114]
## Output < 1 nM

## Input Please report EC50 for the following molecule: O=C(NCc1ncn2ccc(Cl)cc12)c1cn(Cc2cn3cc(C4CC4)ccc3n2)nc1C1CC1 [Example I-78]
## Output < 1 nM

## Input Please report EC50 for the following molecule: O=C(NCc1ncn2ccc(Cl)c(F)c12)c1cn(Cc2cn3cc(C4CC4)cc(CS(=O)(=O)NCC(F)(F)F)c3n2)nn1 [Example I-281]
## Output < 1 nM
